Assay: Bioavailability in solid organ transplant patient exhibiting 57 mL/min creatinine clearance infected with cytomegalovirus at 5 mg/kg, iv bid for 5 days followed by 900 mg of oral valganciclovir dosed twice daily for 16 days dose adjustment for renal function by basal population pharmacokinetic model
Details: human, in vivo
measured_parameter: bioavailability (%)
Write down the numeric answer in % and omit the unit.

Q) Which bioavailability value belongs to Nc1nc(O)c2ncn(COC(CO)CO)c2n1 [GANCICLOVIR] ?
A) 76
